Where do the numbers come from? From the RNAGym collection of RNA variant scans (doi:10.7554/elife.80360).

B1: CPEB3 Ribozyme (parent)
chain: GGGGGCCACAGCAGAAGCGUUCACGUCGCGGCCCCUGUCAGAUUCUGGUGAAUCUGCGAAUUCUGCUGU

- Variants of: B1
- experimental-details: self-cleavage, relative activity (ratio to wild type); higher = more cleavage; co-transcriptional
So I've got a bunch of variants here, and I need their self-cleavage values.
Respond using a number only.

Request: Dear colleague, I am looking for the recorded self-cleavage of the following variant: G2A U38C
Result: 0.117

Request: Dear colleague, I am looking for the recorded self-cleavage of the following variant: C12U G65U
Result: 0.948

Request: Dear colleague, I am looking for the recorded self-cleavage of the following variant: G1C A60C
Result: 0.0756

Request: Dear colleague, I am looking for the recorded self-cleavage of the following variant: C22U C32A
Result: 0.17

Request: Dear colleague, I am looking for the recorded self-cleavage of the following variant: A13U C39A
Result: 0.394

Request: Dear colleague, I am looking for the recorded self-cleavage of the following variant: A15C G58A
Result: 0.809

Request: Dear colleague, I am looking for the recorded self-cleavage of the following variant: A23C C66U
Result: 0.94

Request: Dear colleague, I am looking for the recorded self-cleavage of the following variant: C34U G50C
Result: 0.999

Request: Dear colleague, I am looking for the recorded self-cleavage of the following variant: A40U U69A
Result: 0.964

Request: Dear colleague, I am looking for the recorded self-cleavage of the following variant: U21G U38G
Result: 0.274

Request: Dear colleague, I am looking for the recorded self-cleavage of the following variant: G3C U20G
Result: 0.0823
